Every entry's value here was drawn from the supplement of paper PMC10567573.

B1: TRIM15 (parent)
chain: LLARLRELEQQIWKERDEYITKVS

- Variants of: B1
- test: protein stability index of a GFP-peptide fusion (GPS, HEK-293T) (PSI 1-6); higher = more stable;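 further: lentivirally expressed fusions sorted by FACS into six bins by GFP to DsRed ratio, PSI derived from sequencing read proportions per bin multiplied by bin number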
- assay.conditions: c terminus: a fixed tail appended
property.label: protein stability index
Returns: the value as a bare number; no unit string appended.

Name the recorded protein stability index for S24N .
1.52

Name the recorded protein stability index for W13V .
1.96

Name the recorded protein stability index for K22N .
1.38

Name the recorded protein stability index for K22W .
2.06

Name the recorded protein stability index for L5H .
2.72

Name the recorded protein stability index for L5D .
2.44

Name the recorded protein stability index for S24R .
1.93

Name the recorded protein stability index for L1G .
1.55

Name the recorded protein stability index for V23R .
1.57

Name the recorded protein stability index for Y19T .
1.67

Name the recorded protein stability index for V23T .
1.63

Name the recorded protein stability index for R4Y .
1.92
